Reported Antioxidant IC50 values for a set of compounds
measurement_protocol: Antioxidant assay, scavenging of DPPH free radicals
test_conditions: Table 1, turmeric-derived natural product compounds; scavenging 50% of DPPH free radicals

# annotated cases, reported Antioxidant IC50 shown
| compound | observation_type | result |
| --- | --- | --- |
| O=C(C=Cc1ccc(O)cc1)CC(=O)CCc1ccc(O)cc1 [Compound 4] | Antioxidant IC50 | >200 µg/mL |
| COc1cc(C=CC(=O)CC(=O)C=Cc2ccc(O)cc2)ccc1O [Compound 2] | Antioxidant IC50 | 36.2 µg/mL |

Task: # return recorded Antioxidant IC50 for input COc1cc(/C=C/C(=O)COC(=O)/C=C/c2ccc(O)c(OC)c2)ccc1O [Compound 6]
Result: >200 µg/mL

Task: # return recorded Antioxidant IC50 for input O=C(C=C(O)C=Cc1ccc(O)c(O)c1)CCc1ccc(O)cc1 [Compound 5]
Result: >200 µg/mL

Task: # return recorded Antioxidant IC50 for input O=C(C=Cc1ccc(O)cc1)CC(=O)C=Cc1ccc(O)cc1 [Compound 3]
Result: >200 µg/mL
